target: human ether-à-go-go-related gene (hERG) potassium channel (human); assay: primary screen, population patch clamp on CHO cells stably expressing hERG; higher = less effect of the substance;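 note: peak tail current of the secondary pulse compared with the same well before compound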
The whole screen tested about 310,000 compounds, of which about 14,000 (4.5%) showed an effect of 50% or more. Effects have a minus sign here. This excerpt belongs to a sample that is enriched for strong results.
Param threshold (-30%) applies to hERG current change (%, negative = inhibition) at 10uM; output rule met when value >= threshold, rule not met when value < threshold.

Check the entry COc1ccc(S(=O)(=O)NCCc2nnc3ccc(SCC(=O)Nc4nc(C)cs4)nn23)cc1 : does hERG current change (%, negative = inhibition) at 10uM equal or exceed -30%?
rule met

Check the entry Cc1nc(NC(=O)CSc2cc(C)c3ccccc3n2)c(Cl)cc1Cl : does hERG current change (%, negative = inhibition) at 10uM equal or exceed -30%?
rule met

Check the entry CC1=NN(C(=O)c2ccc(Cn3nc(C)c([N+](=O)[O-])c3C)o2)C(O)(C(F)(F)F)C1 (centres unmarked) : does hERG current change (%, negative = inhibition) at 10uM equal or exceed -30%?
rule not met

Check the entry Cc1c(/C=N/NC(=O)c2cc(Br)ccc2O)c(=O)n(C)c(=O)n1C : does hERG current change (%, negative = inhibition) at 10uM equal or exceed -30%?
rule met

New cases:
Check the entry COc1ccc(/C=N/N=C/c2c[nH]c(=O)c(C#N)c2Nc2ccccc2)cc1 : does hERG current change (%, negative = inhibition) at 10uM equal or exceed -30%?
rule met

Check the entry Cc1ccc(C(C)C)c(OCC(O)CN2CCN(CCO)CC2)c1.Cl (centres unmarked) : does hERG current change (%, negative = inhibition) at 10uM equal or exceed -30%?
rule met

---

biological target: human ether-à-go-go-related gene (hERG) potassium channel (human, UniProt Q12809); experiment: primary screen, population patch clamp on CHO cells stably expressing hERG; higher = less effect of the substance;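 note: peak tail current of the secondary pulse compared with the same well before compound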
Sequence (Q12809 whole entry, looked up): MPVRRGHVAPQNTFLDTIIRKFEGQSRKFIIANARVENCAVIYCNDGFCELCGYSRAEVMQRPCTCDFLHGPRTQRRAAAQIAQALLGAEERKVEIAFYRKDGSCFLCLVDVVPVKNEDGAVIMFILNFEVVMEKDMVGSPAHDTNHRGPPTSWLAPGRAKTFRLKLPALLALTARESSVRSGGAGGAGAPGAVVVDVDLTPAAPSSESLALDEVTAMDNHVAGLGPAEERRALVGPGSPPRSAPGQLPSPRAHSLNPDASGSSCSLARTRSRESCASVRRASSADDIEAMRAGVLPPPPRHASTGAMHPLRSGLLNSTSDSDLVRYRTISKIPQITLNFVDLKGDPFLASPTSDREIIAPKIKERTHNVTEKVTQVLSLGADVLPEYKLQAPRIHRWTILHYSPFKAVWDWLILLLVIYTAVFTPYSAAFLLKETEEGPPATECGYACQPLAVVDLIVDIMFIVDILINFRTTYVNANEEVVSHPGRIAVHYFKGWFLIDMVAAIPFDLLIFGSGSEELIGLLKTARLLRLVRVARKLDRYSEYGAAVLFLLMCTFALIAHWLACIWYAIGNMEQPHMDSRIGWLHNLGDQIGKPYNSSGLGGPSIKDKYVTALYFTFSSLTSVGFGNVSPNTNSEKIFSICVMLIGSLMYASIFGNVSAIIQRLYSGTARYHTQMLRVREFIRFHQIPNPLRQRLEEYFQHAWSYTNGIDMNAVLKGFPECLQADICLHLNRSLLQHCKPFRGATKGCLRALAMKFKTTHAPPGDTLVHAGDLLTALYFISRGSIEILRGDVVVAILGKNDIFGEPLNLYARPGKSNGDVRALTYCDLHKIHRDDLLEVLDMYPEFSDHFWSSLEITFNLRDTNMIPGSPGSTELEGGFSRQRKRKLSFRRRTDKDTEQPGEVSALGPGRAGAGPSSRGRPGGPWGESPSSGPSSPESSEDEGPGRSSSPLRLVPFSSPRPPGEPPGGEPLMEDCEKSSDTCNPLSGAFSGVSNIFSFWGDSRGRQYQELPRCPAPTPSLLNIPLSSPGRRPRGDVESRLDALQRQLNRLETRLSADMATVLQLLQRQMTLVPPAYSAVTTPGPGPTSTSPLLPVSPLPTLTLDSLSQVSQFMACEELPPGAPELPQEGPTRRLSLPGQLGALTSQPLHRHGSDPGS
Out of some 310,000 compounds screened, about 14,000 (4.5%) showed an effect of 50% or more. The effect is printed as a negative number. For the sample, strong results were picked, then their nearest neighbours and some compounds at random.
So I've got a bunch of molecules here, and I need their hERG current change (%, negative = inhibition) at 10uM values.
Numbers only, in %.

Record excerpt, results attached:
# hERG current change (%, negative = inhibition) at 10uM lookup, item COc1ccc(CC(=O)Nc2cc(S(=O)(=O)N3CCOCC3)ccc2N2CCOCC2)cc1
0.344

# hERG current change (%, negative = inhibition) at 10uM lookup, item CCN1CCN(c2ccc(S(=O)(=O)N3CCCCC3)cc2NC(=O)Cc2c(F)cccc2Cl)CC1
-8.09

# hERG current change (%, negative = inhibition) at 10uM lookup, item CCN(C(=O)COC(=O)c1ccc(C)c(S(=O)(=O)N2CCOCC2)c1)C1CCS(=O)(=O)C1 (centres unmarked)
1.32

# hERG current change (%, negative = inhibition) at 10uM lookup, item CCCCN(C(=O)c1ccc(S(=O)(=O)N2CCCC2)cc1)C1CCS(=O)(=O)C1 (centres unmarked)
-0.0452

# hERG current change (%, negative = inhibition) at 10uM lookup, item CN1CCN(c2ccc(S(=O)(=O)N3CCOCC3)cc2NC(=O)CCc2ccccc2)CC1
-8.75

Each molecule below has a reported value. Please supply its hERG current change (%, negative = inhibition) at 10uM.
1. O=C(Cc1ccc(Cl)cc1)Nc1cc(S(=O)(=O)N2CCOCC2)ccc1N1CCCC1
2. CCN(C(=O)COC(=O)c1ccc(C)c(S(=O)(=O)N2CCCCC2)c1)C1CCS(=O)(=O)C1 (centres unmarked)
3. CN1CCN(c2ccc(S(=O)(=O)N3CCCCC3)cc2NC(=O)Cc2c(F)cccc2Cl)CC1

1. -37.3
2. -66.5
3. -21.8
